System: 786-0 (Kidney Carcinoma)
Assay: combination Emax (second highest fraction inhibited in the dose matrix, 72 h); higher = more inhibition; extreme values may be limits of the assay
measurement-kind: combination Emax

// combination Emax lookup, key: Cn1cnc2c(F)c(Nc3ccc(Br)cc3Cl)c(C(=O)NOCCO)cc21 [Selumetinib] + CCN(CCO)CCCOc1ccc2c(Nc3cc(CC(=O)Nc4cccc(F)c4)[nH]n3)ncnc2c1 [AZD2811] (first compound max 10 µM, 7x7, partner max 1 µM)
0.208

Item: Cc1c2c(nn1C)CSCc1cc(n(C)n1)CSc1cc(c3ccccc3c1)OCCCc1c(C(=O)O)n(C)c3c-2c(Cl)ccc13 [AZD5991] + CC1(C)CCC(CN2CCN(c3ccc(C(=O)NS(=O)(=O)c4ccc(NCC5CCOCC5)c([N+](=O)[O-])c4)c(Oc4cnc5[nH]ccc5c4)c3)CC2)=C(c2ccc(Cl)cc2)C1 [Venetoclax] (first compound max 1 µM, 7x7, partner max 1 µM)
0.199

Item: Cc1c2c(nn1C)CSCc1cc(n(C)n1)CSc1cc(c3ccccc3c1)OCCCc1c(C(=O)O)n(C)c3c-2c(Cl)ccc13 [AZD5991] + CCN(CCO)CCCOc1ccc2c(Nc3cc(CC(=O)Nc4cccc(F)c4)[nH]n3)ncnc2c1 [AZD2811] (first compound max 1 µM, 7x7, partner max 1 µM)
0.35

====

Test system: KYSE-70 (Esophageal Squamous Cell Carcinoma)
Assay: combination Emax (second highest fraction inhibited in the dose matrix, 72 h); higher = more inhibition; extreme values may be limits of the assay
measurement-kind: combination Emax
Returns: the value as a bare number; no unit string appended.

>>> obs_value("Cc1cc2ncnn2cc1Nc1ncc2c(n1)n(C1CCOCC1)c(=O)n2C [AZD7648] + CCN(CCO)CCCOc1ccc2c(Nc3cc(CC(=O)Nc4cccc(F)c4)[nH]n3)ncnc2c1 [AZD2811] (first compound max 10 µM, 7x7, partner max 1 µM)")
0.238
>>> obs_value("CN(C)CCCOc1ccc(-c2ccc3ncc4c(c3c2)n(C2CCOCC2)c(=O)n4C)cn1 [AZD0156] + C=CCn1c(=O)c2cnc(Nc3ccc(N4CCN(C)CC4)cc3)nc2n1-c1cccc(C(C)(C)O)n1 [AZD1775] (first compound max 1 µM, partner max 1 µM)")
0.538
>>> obs_value("CN(CCO)CC[C@H](CSc1ccccc1)Nc1ccc(S(=O)(=O)NC(=O)c2ccc(N3CCC([C@@H](O)c4ccccc4-c4ccc(Cl)cc4)CC3)cc2)cc1S(=O)(=O)C(F)(F)F [AZD4320] + Cc1cc2ncnn2cc1Nc1ncc2c(n1)n(C1CCOCC1)c(=O)n2C [AZD7648] (first compound max 1 µM, 7x7, partner max 10 µM)")
0.132
>>> obs_value("CS(=O)(=O)CCNCc1ccc(-c2ccc3ncnc(Nc4ccc(OCc5cccc(F)c5)c(Cl)c4)c3c2)o1 [Lapatinib] + NC1(c2ccc(-c3nc4ccn5c(=O)[nH]nc5c4cc3-c3ccccc3)cc2)CCC1 [MK-2206] (first compound max 10 µM, 7x7, partner max 10 µM)")
0.613
>>> obs_value("CC1(C)CCC(CN2CCN(c3ccc(C(=O)NS(=O)(=O)c4ccc(NCC5CCOCC5)c([N+](=O)[O-])c4)c(Oc4cnc5[nH]ccc5c4)c3)CC2)=C(c2ccc(Cl)cc2)C1 [Venetoclax] + C=CCn1c(=O)c2cnc(Nc3ccc(N4CCN(C)CC4)cc3)nc2n1-c1cccc(C(C)(C)O)n1 [AZD1775] (first compound max 1 µM, partner max 1 µM)")
0.604
>>> obs_value("CC1(C)CCC(CN2CCN(c3ccc(C(=O)NS(=O)(=O)c4ccc(NCC5CCOCC5)c([N+](=O)[O-])c4)c(Oc4cnc5[nH]ccc5c4)c3)CC2)=C(c2ccc(Cl)cc2)C1 [Venetoclax] + COc1cc(Nc2ncc3c(n2)-c2ccc(Cl)cc2C(c2c(F)cccc2OC)=NC3)ccc1C(=O)O [Alisertib] (first compound max 1 µM, 7x7, partner max 10 µM)")
0.392
>>> obs_value("CN(CCO)CC[C@H](CSc1ccccc1)Nc1ccc(S(=O)(=O)NC(=O)c2ccc(N3CCC([C@@H](O)c4ccccc4-c4ccc(Cl)cc4)CC3)cc2)cc1S(=O)(=O)C(F)(F)F [AZD4320] + C[C@@H]1COCCN1C2=NC(=NC(=C2)C3(CC3)[S@](=N)(=O)C)C4=C5C=CNC5=NC=C4 [AZD6738] (first compound max 1 µM, 7x7, partner max 10 µM)")
0.493

Below: the item to evaluate.
// combination Emax lookup, key: C[C@@H](c1ccc2nccn2c1)n1nnc2ncc(-c3cnn(C)c3)nc21 [Savolitinib] + Cc1c2c(nn1C)CSCc1cc(n(C)n1)CSc1cc(c3ccccc3c1)OCCCc1c(C(=O)O)n(C)c3c-2c(Cl)ccc13 [AZD5991] (first compound max 1 µM, 7x7, partner max 1 µM)
0.107

====

Here, each record is paired with measured Bliss excess data.
Test system: RPMI-8866 (Chronic Myelogenous Leukemia);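 note: after 72 h of two-drug dosing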
Assay: Bliss excess, mean over the matrix (fraction); higher = more synergy
Returns: the value as a bare number; no unit string appended.

>>> obs_value("COc1cc2c(cc1OCCCCCOc1cc3c(cc1OC)C(=O)N1C=C(C)C[C@H]1C=N3)N=C[C@@H]1CC(C)=CN1C2=O [SG3199] + O=C(c1cc(Cc2n[nH]c(=O)c3ccccc23)ccc1F)N1CCN(C(=O)C2CC2)CC1 [Olaparib] (first compound max 0.001 µM, 7x7, partner max 10 µM)")
-0.0032
>>> obs_value("COc1cccc(OCCCN)c1-c1cc(Nc2cnc(C#N)cn2)n[nH]1 [Prexasertib] + CCc1c2c(nc3ccc(O)cc13)-c1cc3c(c(=O)n1C2)COC(=O)[C@]3(O)CC [SN-38] (first compound max 1 µM, 7x7, partner max 0.3 µM)")
0.0104
>>> obs_value("CN(CCO)CC[C@H](CSc1ccccc1)Nc1ccc(S(=O)(=O)NC(=O)c2ccc(N3CCC([C@@H](O)c4ccccc4-c4ccc(Cl)cc4)CC3)cc2)cc1S(=O)(=O)C(F)(F)F [AZD4320] + CN(C)CCCOc1ccc(-c2ccc3ncc4c(c3c2)n(C2CCOCC2)c(=O)n4C)cn1 [AZD0156] (first compound max 1 µM, 7x7, partner max 1 µM)")
-0.0756
>>> obs_value("COc1nnc2ccc(N3CCC(c4ccc(OCCN5CCN(C)C(=O)[C@H]5C)cc4)CC3)nn12 [AZD5153] + CN(CC[C@H](CSC1=CC=CC=C1)NC2=C(C=C(C=C2)S(=O)(=O)NC(=O)C3=CC=C(C=C3)N4CCC(CC4)[C@H](C5=CC=CC=C5C6=CC=C(C=C6)Cl)O)S(=O)(=O)C(F)(F)F)CCO [AZD4320] (first compound max 1 µM, 7x7, partner max 1 µM)")
-0.0318
>>> obs_value("COc1cccc(OCCCN)c1-c1cc(Nc2cnc(C#N)cn2)n[nH]1 [Prexasertib] + O=C(c1cc(Cc2n[nH]c(=O)c3ccccc23)ccc1F)N1CCN(C(=O)C2CC2)CC1 [Olaparib] (first compound max 1 µM, 7x7, partner max 10 µM)")
0.0028

// Bliss excess lookup, key: CN(C)CCCOc1ccc(-c2ccc3ncc4c(c3c2)n(C2CCOCC2)c(=O)n4C)cn1 [AZD0156] + O=C(c1cc(Cc2n[nH]c(=O)c3ccccc23)ccc1F)N1CCN(C(=O)C2CC2)CC1 [Olaparib] (first compound max 3 µM, partner max 3 µM)
0.0607

Item: Cn1cnc2c(F)c(Nc3ccc(Br)cc3Cl)c(C(=O)NOCCO)cc21 [Selumetinib] + CC(C)n1c(=O)n(C)c2cnc3cc(F)c(-c4ccc(OCCCN5CCCCC5)nc4)cc3c21 [AZD1390] (first compound max 10 µM, 7x7, partner max 0.3 µM)
-0.0193

Item: Cn1cnc2c(F)c(Nc3ccc(Br)cc3Cl)c(C(=O)NOCCO)cc21 [Selumetinib] + CCN(CCO)CCCOc1ccc2c(Nc3cc(CC(=O)Nc4cccc(F)c4)[nH]n3)ncnc2c1 [AZD2811] (first compound max 10 µM, 7x7, partner max 1 µM)
0.0543

====

Test system: KYSE-70 (Esophageal Squamous Cell Carcinoma)
Test: combination Emax (second highest fraction inhibited in the dose matrix, 72 h); higher = more inhibition; extreme values may be limits of the assay
measurement-kind: combination Emax
Returns: the value as a bare number; no unit string appended.

For orientation, consider the following solved cases.
>>> obs_value("COc1cccc2c1C(=O)c1c(O)c3c(c(O)c1C2=O)C[C@@](O)(C(=O)CO)C[C@@H]3O[C@H]1C[C@H](N)[C@H](O)[C@H](C)O1 [Doxorubicin] + Cc1cc2ncnn2cc1Nc1ncc2c(n1)n(C1CCOCC1)c(=O)n2C [AZD7648] (first compound max 1 µM, 7x7, partner max 10 µM)")
0.502
>>> obs_value("NC1(C(=O)N[C@@H](CCO)c2ccc(Cl)cc2)CCN(c2ncnc3[nH]ccc23)CC1 [Capivasertib] + CC(C)n1c(=O)n(C)c2cnc3cc(F)c(-c4ccc(OCCCN5CCCCC5)nc4)cc3c21 [AZD1390] (first compound max 10 µM, 7x7, partner max 0.3 µM)")
0.259

// combination Emax lookup, key: CN(CCO)CC[C@H](CSc1ccccc1)Nc1ccc(S(=O)(=O)NC(=O)c2ccc(N3CCC([C@@H](O)c4ccccc4-c4ccc(Cl)cc4)CC3)cc2)cc1S(=O)(=O)C(F)(F)F [AZD4320] + CCN(CCO)CCCOc1ccc2c(Nc3cc(CC(=O)Nc4cccc(F)c4)[nH]n3)ncnc2c1 [AZD2811] (first compound max 1 µM, 7x7, partner max 1 µM)
0.391
